Entries and their viability, T/C values follow.
Test system: 292921-168-R tumor spheroid viability
ASSAY_OVERVIEW: Anticancer human tumor 292921-168-R patient-derived pancreatic carcinoma cell line growth inhibition
TEST_SETTINGS: second compound 0.00949 µM; first compound 1 µM; stronger effect = lower value; spheroids with HUVEC and MSC
Procedure: Multicellular complex tumor spheroid response to DNA repair inhibitors in combination with DNA-damaging drugs This study explores the anticancer activities of DNA-damaging drugs and inhibitors of DNA damage repair, both as single agents and in combinations. […] Twenty-six patient-derived or established malignant cell lines were evaluated representing sarcoma, melanoma, small cell lung cancer (SCLC), non-small cell lung cancer (NSCLC), as well as bladder, ovarian and pancreatic cancers. […]

Below, each entry is followed by its recorded viability, T/C result.
Given the entry COc1cc(C)[nH]c(=O)c1CN1CCc2c(Cl)cc(C(OC)C3COC3)c(Cl)c2C1=O (stereo unspecified) + CC[C@@]1(O)C(=O)OCc2c1cc1n(c2=O)Cc2cc3c(CN(C)C)c(O)ccc3nc2-1 , report its measured viability, T/C.
71.5%

Given the entry COc1ccc([C@@H](O)c2cc(-c3ncnc4cc(N5CCOCC5)ccc34)c(F)cc2Cl)nn1 + CC[C@@]1(O)C(=O)OCc2c1cc1n(c2=O)Cc2cc3c(CN(C)C)c(O)ccc3nc2-1 , report its measured viability, T/C.
45.6%

***
Given the entry Cc1cc(C)c(CNC(=O)c2cc(-c3ccc(CN4CCOCC4)cc3)cc3c2cnn3C2CCCC2)c(=O)[nH]1 + CC[C@@]1(O)C(=O)OCc2c1cc1n(c2=O)Cc2cc3c(CN(C)C)c(O)ccc3nc2-1 , report its measured viability, T/C.
71.7%

Given the entry [2H]c1nc(C)nc([2H])c1-c1cc(NC[C@@H](C)c2cccc3c(C(=O)NC)ccnc23)ncn1 + CC[C@@]1(O)C(=O)OCc2c1cc1n(c2=O)Cc2cc3c(CN(C)C)c(O)ccc3nc2-1 , report its measured viability, T/C.
76.9%

Given the entry CC1COCCN1c1cc(-c2ccnn2C)c2ccnc(-c3ccn[nH]3)c2n1 (stereo unspecified) + CC[C@@]1(O)C(=O)OCc2c1cc1n(c2=O)Cc2cc3c(CN(C)C)c(O)ccc3nc2-1 , report its measured viability, T/C.
11.8%

Given the entry CC(C)n1c(=O)n(C)c2cnc3cc(F)c(-c4ccc(OCCCN5CCCCC5)nc4)cc3c21 + CC[C@@]1(O)C(=O)OCc2c1cc1n(c2=O)Cc2cc3c(CN(C)C)c(O)ccc3nc2-1 , report its measured viability, T/C.
25.2%

###

Tested on: 292921-168-R tumor spheroid viability
ASSAY_OVERVIEW: Anticancer human tumor 292921-168-R cell line growth inhibition;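 further: spheroids exposed to compounds for 7 days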
TEST_SETTINGS: second compound 0.003 µM; first compound 0.316 µM; stronger effect = lower value; spheroids with HUVEC and MSC
EXPERIMENTAL_READOUT: viability, T/C (%)
Could you give me the number in %? Just the number is fine.

Below, each entry is followed by its recorded viability, T/C result.
Given the entry COc1cc(C)[nH]c(=O)c1CN1CCc2c(Cl)cc(C(OC)C3COC3)c(Cl)c2C1=O (configuration not stated) + COc1cc2c(cc1O)CCNC21CSC2c3c(OC(C)=O)c(C)c4c(c3C(COC1=O)N1C(O)C3Cc5cc(C)c(OC)c(O)c5C(C21)N3C)OCO4 , report its measured viability, T/C.
0.13

Given the entry COc1ccc([C@@H](O)c2cc(-c3ncnc4cc(N5CCOCC5)ccc34)c(F)cc2Cl)nn1 + COc1cc2c(cc1O)CCNC21CSC2c3c(OC(C)=O)c(C)c4c(c3C(COC1=O)N1C(O)C3Cc5cc(C)c(OC)c(O)c5C(C21)N3C)OCO4 , report its measured viability, T/C.
0.49

Given the entry COc1ccc([C@@H](O)c2cc(-c3ncnc4cc(N5CCOCC5)ccc34)c(F)cc2Cl)nn1 + CC[C@@]1(O)C(=O)OCc2c1cc1n(c2=O)Cc2cc3c(CN(C)C)c(O)ccc3nc2-1 , report its measured viability, T/C.
77.8

Given the entry Cc1cc(C)c(CNC(=O)c2cc(-c3ccc(CN4CCOCC4)cc3)cc3c2cnn3C2CCCC2)c(=O)[nH]1 + CC[C@@]1(O)C(=O)OCc2c1cc1n(c2=O)Cc2cc3c(CN(C)C)c(O)ccc3nc2-1 , report its measured viability, T/C.
84.7

Given the entry CC(C)n1c(=O)n(C)c2cnc3cc(F)c(-c4ccc(OCCCN5CCCCC5)nc4)cc3c21 + COc1cc2c(cc1O)CCNC21CSC2c3c(OC(C)=O)c(C)c4c(c3C(COC1=O)N1C(O)C3Cc5cc(C)c(OC)c(O)c5C(C21)N3C)OCO4 , report its measured viability, T/C.
0.2

***
Given the entry Cc1cc(C)c(CNC(=O)c2cc(-c3ccc(CN4CCOCC4)cc3)cc3c2cnn3C2CCCC2)c(=O)[nH]1 + COc1cc2c(cc1O)CCNC21CSC2c3c(OC(C)=O)c(C)c4c(c3C(COC1=O)N1C(O)C3Cc5cc(C)c(OC)c(O)c5C(C21)N3C)OCO4 , report its measured viability, T/C.
0.17

Given the entry CC(C)n1c(=O)n(C)c2cnc3cc(F)c(-c4ccc(OCCCN5CCCCC5)nc4)cc3c21 + CC[C@@]1(O)C(=O)OCc2c1cc1n(c2=O)Cc2cc3c(CN(C)C)c(O)ccc3nc2-1 , report its measured viability, T/C.
44.9

Given the entry CC1COCCN1c1cc(-c2ccnn2C)c2ccnc(-c3ccn[nH]3)c2n1 (configuration not stated) + COc1cc2c(cc1O)CCNC21CSC2c3c(OC(C)=O)c(C)c4c(c3C(COC1=O)N1C(O)C3Cc5cc(C)c(OC)c(O)c5C(C21)N3C)OCO4 , report its measured viability, T/C.
0.17

Given the entry [2H]c1nc(C)nc([2H])c1-c1cc(NC[C@@H](C)c2cccc3c(C(=O)NC)ccnc23)ncn1 + CC[C@@]1(O)C(=O)OCc2c1cc1n(c2=O)Cc2cc3c(CN(C)C)c(O)ccc3nc2-1 , report its measured viability, T/C.
96.9

Given the entry CC1COCCN1c1cc(-c2ccnn2C)c2ccnc(-c3ccn[nH]3)c2n1 (configuration not stated) + CC[C@@]1(O)C(=O)OCc2c1cc1n(c2=O)Cc2cc3c(CN(C)C)c(O)ccc3nc2-1 , report its measured viability, T/C.
10

Given the entry COc1cc(C)[nH]c(=O)c1CN1CCc2c(Cl)cc(C(OC)C3COC3)c(Cl)c2C1=O (configuration not stated) + CC[C@@]1(O)C(=O)OCc2c1cc1n(c2=O)Cc2cc3c(CN(C)C)c(O)ccc3nc2-1 , report its measured viability, T/C.
85

Given the entry [2H]c1nc(C)nc([2H])c1-c1cc(NC[C@@H](C)c2cccc3c(C(=O)NC)ccnc23)ncn1 + COc1cc2c(cc1O)CCNC21CSC2c3c(OC(C)=O)c(C)c4c(c3C(COC1=O)N1C(O)C3Cc5cc(C)c(OC)c(O)c5C(C21)N3C)OCO4 , report its measured viability, T/C.
0.19
